Data provenance: PubChem BioAssay (NCI)

- Test system: SN12C renal
- Assay protocol: NCI-60 one-dose screen, 48 h (100 = growth as untreated, 0 = no growth, -100 = all killed)
- Assay context: 10 µM unless noted
About 83,000 compounds went through this panel and 20% of them were active in at least one assay; those are over-represented in the sample as a whole.
Exercise: state measured growth for each of the molecules provided.
Please give a number only; it is taken to be in %.

Note down growth recorded for COC1=C(C)C(=O)C2=C(C1=O)C(CO)N1C(C#N)C3CC4C(C1C2N1CCOC41)N3C (stereo not given)
19.8

Note down growth recorded for `CC1=C2C(=O)[C@H]3[C@@H](CC=C4C[C@@H](O)CC[C@@]43C)[C@@H]2CC[C@]12O[C@@H]1C[C@H](C)CN[C@H]1[C@H]2C`
102

Note down growth recorded for CC[C@@]1(O)C[C@H](OC2CC(N(C)C)C(OC3CC(O)C(OC4CCC(=O)C(C)O4)C(C)O3)C(C)O2)c2c(cc3c(c2O)C(=O)c2c(O)ccc(O)c2C3=O)[C@H]1C(=O)OC (stereo not given in full)
24.3

Note down growth recorded for O=C1c2ccccc2C(=O)C(Cl)C1Cl (stereo not given)
71.4

Note down growth recorded for `CC[C@@]1(O)C(=O)OCc2c1cc1n(c2=O)Cc2cc3ccccc3nc2-1`
13.5

---

- System: CCRF-CEM leukemia
- Assay protocol: NCI-60 one-dose screen, 48 h
- Assay context: 10 µM unless noted
This is part of a sample that, as a whole, favours compounds with a hit. Of some 83,000 tested, about 20% had one in any assay. The source made the active and inactive calls. How the source made its calls: active means growth percent below 10; inactive means the rest.
Your answer must be one of the following: label 1 for active, label 0 for inactive

For CCOC(=O)C(NC(=O)C(Cc1ccc(N(CCCl)CCCl)cc1)NC(C)=O)C(C)C (stereo unspecified) , what call appears in the results of this test?
label 0

For COC1=C(C)C(=O)C2=C(C1=O)C(CO)N1C(C#N)C3CC4C(C1C2N1CCOC41)N3C (stereo unspecified) , what call appears in the results of this test?
label 1

For `C[C@H]1CCC/C=C/[C@@H]2C[C@H](O)C[C@H]2[C@H](O)/C=C/C(=O)O1` , what call appears in the results of this test?
label 1

For CC[C@@]1(O)C[C@H](OC2CC(N(C)C)C(OC3CC(O)C(OC4CCC(=O)C(C)O4)C(C)O3)C(C)O2)c2c(cc3c(c2O)C(=O)c2c(O)ccc(O)c2C3=O)[C@H]1C(=O)OC (stereo partly specified) , what call appears in the results of this test?
label 1

For `CC[n+]1c(-c2ccccc2)c2cc(N)ccc2c2ccc(N)cc21` , what call appears in the results of this test?
label 0

For `CC1=C2C(=O)[C@H]3[C@@H](CC=C4C[C@@H](O)CC[C@@]43C)[C@@H]2CC[C@]12O[C@@H]1C[C@H](C)CN[C@H]1[C@H]2C` , what call appears in the results of this test?
label 0

For `COc1ccc(OC)c(/C=C/[N+](=O)[O-])c1` , what call appears in the results of this test?
label 1

For `CC1=C(CO)C2=C(C)C3(CC3)[C@@](C)(O)C(=O)C2=C1` , what call appears in the results of this test?
label 0

For `CO[C@H](/C(C)=C/C=C/C(C)=C/c1coc(C)n1)[C@H](C)[C@H]1C[C@@H](O)[C@@]2(C)O[C@H]2/C=C/[C@@H](C)[C@@H]2C[C@@H](CC(=O)O2)C[C@H]2O[C@@H]2C(=O)O1` , what call appears in the results of this test?
label 1

For Cc1c(N)nc([C@H](CC(N)=O)NC[C@H](N)C(N)=O)nc1C(=O)N[C@H](C(=O)N[C@H](C)[C@@H](O)[C@H](C)C(=O)N[C@H](C(=O)NCCc1nc(-c2nc(C(=O)NCCC[S+](C)C)cs2)cs1)[C@@H](C)O)C(OC1OC(CO)C(O)C(O)C1OC1OC(CO)C(O)C(OC(N)=O)C1O)c1cnc[nH]1 (stereo partly specified) , what call appears in the results of this test?
label 0

For `CN1CCN(c2ccc([N+](=O)[O-])c3no[n+]([O-])c23)CC1` , what call appears in the results of this test?
label 1

For COC1CC(CC2CCC(C)C(C(C)C(=O)O)O2)OC2(OC(C)(C3CCC(C)(C4OC(C5OC(O)(CO)C(C)CC5C)CC4C)O3)CC2C)C1C (stereo unspecified) , what call appears in the results of this test?
label 1

For `Oc1cc[c]([Hg][Cl])cc1` , what call appears in the results of this test?
label 0

For CCCCCCCCCCCC1CCCC(C)N1 (stereo unspecified) , what call appears in the results of this test?
label 0

For Cc1ccc(C(=O)OC(C(=O)O)C(OC(=O)c2ccc(C)cc2)C(=O)O)cc1 (stereo unspecified) (tested in a mixture with another compound) , what call appears in the results of this test?
label 0

For `Cc1cc(N=Nc2ccccc2C)ccc1N` , what call appears in the results of this test?
label 1

---

- System: SF-295 CNS
- Assay protocol: NCI-60 one-dose screen, 48 h
- Assay context: 10 µM unless noted
This is part of a sample that, as a whole, favours compounds with a hit. Of some 83,000 tested, about 20% had one in any assay. Active and inactive are the calls of the source. The calls were made as follows: active = growth percent below 10; inactive = the rest.
Your answer must be one of the following: true = active, false = inactive

For COC1=C(C)C(=O)C2=C(C1=O)C(CO)N1C(C#N)C3CC4C(C1C2N1CCOC41)N3C (configuration not stated) , what call appears in the results of this test?
true

For `C[C@]12CC[C@H](O)CC1=CC[C@@H]1[C@@H]2CC[C@]2(C)C(=O)CC[C@@H]12` , what call appears in the results of this test?
false

For CCCCCCCCCCCC1CCCC(C)N1 (configuration not stated) , what call appears in the results of this test?
false

For COC1CC(CC2CCC(C)C(C(C)C(=O)O)O2)OC2(OC(C)(C3CCC(C)(C4OC(C5OC(O)(CO)C(C)CC5C)CC4C)O3)CC2C)C1C (configuration not stated) , what call appears in the results of this test?
true

For CC[C@@]1(O)C[C@H](OC2CC(N(C)C)C(O)C(C)O2)c2c(O)c3c(c(O)c2[C@H]1OC1CC(N(C)C)C(O)C(C)O1)C(=O)c1cccc(O)c1C3=O (some centres not stated) , what call appears in the results of this test?
true

For O=C1c2ccccc2C(=O)C(Cl)C1Cl (configuration not stated) , what call appears in the results of this test?
false

For `CC1=C2C(=O)[C@H]3[C@@H](CC=C4C[C@@H](O)CC[C@@]43C)[C@@H]2CC[C@]12O[C@@H]1C[C@H](C)CN[C@H]1[C@H]2C` , what call appears in the results of this test?
false

For `C[C@H]1CCC/C=C/[C@@H]2C[C@H](O)C[C@H]2[C@H](O)/C=C/C(=O)O1` , what call appears in the results of this test?
false

For `CC[C@@]1(O)C(=O)OCc2c1cc1n(c2=O)Cc2cc3ccccc3nc2-1` , what call appears in the results of this test?
true

For Cc1c(N)nc([C@H](CC(N)=O)NC[C@H](N)C(N)=O)nc1C(=O)N[C@H](C(=O)N[C@H](C)[C@@H](O)[C@H](C)C(=O)N[C@H](C(=O)NCCc1nc(-c2nc(C(=O)NCCC[S+](C)C)cs2)cs1)[C@@H](C)O)C(OC1OC(CO)C(O)C(O)C1OC1OC(CO)C(O)C(OC(N)=O)C1O)c1cnc[nH]1 (some centres not stated) , what call appears in the results of this test?
true

For `CO[C@H](/C(C)=C/C=C/C(C)=C/c1coc(C)n1)[C@H](C)[C@H]1C[C@@H](O)[C@@]2(C)O[C@H]2/C=C/[C@@H](C)[C@@H]2C[C@@H](CC(=O)O2)C[C@H]2O[C@@H]2C(=O)O1` , what call appears in the results of this test?
true

For `Oc1cc[c]([Hg][Cl])cc1` , what call appears in the results of this test?
false

---

- Tested on: NCI/ADR-RES ovarian
- Assay protocol: NCI-60 one-dose screen, 48 h (100 = growth as untreated, 0 = no growth, -100 = all killed)
- Assay context: 10 µM unless noted
Compounds without any hit were thinned out: in the full panel of roughly 83,000, 20% have a hit.
Measure name: growth (%)
Please give a number only; it is taken to be in %.

With NCI/ADR-RES ovarian as the test system, provide measured growth for this molecule: `NCCc1ccc(OCc2ccccc2)c(OCc2ccccc2)c1`
87.9

With NCI/ADR-RES ovarian as the test system, provide measured growth for this molecule: `C[C@H]1CCC/C=C/[C@@H]2C[C@H](O)C[C@H]2[C@H](O)/C=C/C(=O)O1`
7.27

With NCI/ADR-RES ovarian as the test system, provide measured growth for this molecule: `CC[C@](O)(C(=O)O)c1cc2n(c(=O)c1CO)Cc1cc3ccccc3nc1-2`
2.02

With NCI/ADR-RES ovarian as the test system, provide measured growth for this molecule: `CN1CCN(c2ccc([N+](=O)[O-])c3no[n+]([O-])c23)CC1`
-33.1

With NCI/ADR-RES ovarian as the test system, provide measured growth for this molecule: `C[C@]12CC[C@H](O)CC1=CC[C@@H]1[C@@H]2CC[C@]2(C)C(=O)CC[C@@H]12`
99.1

With NCI/ADR-RES ovarian as the test system, provide measured growth for this molecule: `CO[C@H](/C(C)=C/C=C/C(C)=C/c1coc(C)n1)[C@H](C)[C@H]1C[C@@H](O)[C@@]2(C)O[C@H]2/C=C/[C@@H](C)[C@@H]2C[C@@H](CC(=O)O2)C[C@H]2O[C@@H]2C(=O)O1`
19

With NCI/ADR-RES ovarian as the test system, provide measured growth for this molecule: CCC1(O)CC(OC2CC(N(C)C)C(OC3CC4OC5CC(=O)C(C)OC5OC4C(C)O3)C(C)O2)c2c(cc3c(c2O)C(=O)c2c(O)ccc(O)c2C3=O)C1C(=O)OC (stereo not drawn)
-20

With NCI/ADR-RES ovarian as the test system, provide measured growth for this molecule: CC[C@@]1(O)C[C@H](OC2CC(N(C)C)C(O)C(C)O2)c2c(O)c3c(c(O)c2[C@H]1OC1CC(N(C)C)C(O)C(C)O1)C(=O)c1cccc(O)c1C3=O (stereo partly drawn)
-12.7
